Data credit: BindingDB's records for doi:10.1046/j.1471-4159.2000.0752590.x

// endpoint pKi / system UniProtKB P41594
Sequence (P41594 whole entry): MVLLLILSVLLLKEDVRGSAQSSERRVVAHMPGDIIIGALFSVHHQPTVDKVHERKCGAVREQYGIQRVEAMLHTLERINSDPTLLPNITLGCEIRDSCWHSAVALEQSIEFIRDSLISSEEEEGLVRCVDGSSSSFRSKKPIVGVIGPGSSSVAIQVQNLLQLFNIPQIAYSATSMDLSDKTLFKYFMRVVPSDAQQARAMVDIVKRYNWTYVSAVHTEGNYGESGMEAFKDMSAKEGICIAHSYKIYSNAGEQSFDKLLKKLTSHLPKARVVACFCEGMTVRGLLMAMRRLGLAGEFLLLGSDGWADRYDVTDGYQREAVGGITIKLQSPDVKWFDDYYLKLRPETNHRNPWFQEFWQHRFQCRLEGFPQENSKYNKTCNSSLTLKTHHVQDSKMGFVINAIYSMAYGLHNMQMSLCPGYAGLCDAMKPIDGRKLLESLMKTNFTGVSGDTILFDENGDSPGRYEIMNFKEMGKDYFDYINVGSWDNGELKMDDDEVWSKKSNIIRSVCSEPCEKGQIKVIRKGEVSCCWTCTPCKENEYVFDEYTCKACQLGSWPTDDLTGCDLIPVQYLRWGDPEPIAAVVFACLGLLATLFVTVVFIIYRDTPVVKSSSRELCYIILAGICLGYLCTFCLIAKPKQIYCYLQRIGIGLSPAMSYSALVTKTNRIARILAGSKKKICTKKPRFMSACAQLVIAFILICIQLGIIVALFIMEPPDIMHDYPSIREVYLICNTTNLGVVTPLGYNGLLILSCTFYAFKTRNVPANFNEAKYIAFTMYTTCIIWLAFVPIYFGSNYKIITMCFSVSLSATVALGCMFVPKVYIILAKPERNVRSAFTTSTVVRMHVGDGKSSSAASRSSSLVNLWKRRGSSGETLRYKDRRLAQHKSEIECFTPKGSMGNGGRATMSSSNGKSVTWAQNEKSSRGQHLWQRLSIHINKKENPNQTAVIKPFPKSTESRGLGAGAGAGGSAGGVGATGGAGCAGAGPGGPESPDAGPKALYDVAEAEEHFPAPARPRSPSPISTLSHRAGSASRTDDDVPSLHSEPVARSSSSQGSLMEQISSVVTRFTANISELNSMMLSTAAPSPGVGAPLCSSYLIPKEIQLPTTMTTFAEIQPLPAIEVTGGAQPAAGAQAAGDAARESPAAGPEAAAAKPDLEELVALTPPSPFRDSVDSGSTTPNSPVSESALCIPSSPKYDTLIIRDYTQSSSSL
Reminder that pKi means the negative base-10 logarithm of the concentration expressed in mol/L.

compound="N[C@H](C(=O)O)c1cccc(O)c1 [(S)-3-Hydroxyphenylglycine]" experimental_target="UniProtKB P41594" reported_metric=pKi experimental_value=5.08
compound="NC(C(=O)O)c1ccc(C(=O)O)c(O)c1 (configuration not stated)" experimental_target="UniProtKB P41594" reported_metric=pKi experimental_value=5.60
compound="N[C@@]1(C(=O)O)CC[C@H](C(=O)O)C1 [1S, 3R-ACPD]" experimental_target="UniProtKB P41594" reported_metric=pKi experimental_value=5.68

### Prompt Query for UniProtKB P41594: what pKi does the record show for N[C@@H](Cn1oc(=O)[nH]c1=O)C(=O)O ?
### Response 7.54

### Prompt Quick check: pKi on UniProtKB P41594, item NC(C(=O)O)c1cc(=O)[nH]o1 (configuration not stated) ?
### Response 5.72

----------
Reported Ki values, Metabotropic glutamate receptor 1 (Homo sapiens).

compound=N[C@@H](CCP(=O)(O)O)C(=O)O reported_metric=Ki experimental_value="> 10 µM"
compound=N[C@H](CP(=O)(O)O)C(=O)O reported_metric=Ki experimental_value="> 10 µM"
compound="NC(C(=O)O)c1cc(=O)[nH]o1 (stereo not drawn)" reported_metric=Ki experimental_value="1.2 µM"
compound="N[C@@H](C(=O)O)c1ccc(C(=O)O)cc1 [(S)-4CPG]" reported_metric=Ki experimental_value="3.7 µM"
compound="Cc1onc(O)c1CC(N)C(=O)O (stereo not drawn)" reported_metric=Ki experimental_value="> 10 µM"
compound="N[C@H](C(=O)O)c1cccc(O)c1 [(S)-3-Hydroxyphenylglycine]" reported_metric=Ki experimental_value="> 10 µM"
compound=N[C@H](C(=O)O)[C@H]1C[C@H]1C(=O)O reported_metric=Ki experimental_value="2.3 µM"

Next, consider the following compound.
### Prompt Please look up its Ki: NC1(C(=O)O)CCc2cc(C(=O)O)ccc21 (racemic)
### Response > 10 µM
